- testedTarget: Non-receptor tyrosine-protein kinase TYK2 (Homo sapiens);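 also: values are mean percent inhibition of TYK2 kinase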
- conditionNotes: at 1 µM
propertyLabel: inhibition (%)

1. N#Cc1cccc(Nc2nccc(-c3cnn4ncccc34)n2)c1 | 11
2. CN(C)c1cc2c(Nc3ccc4c(cnn4Cc4ccccc4)c3)ncnc2cn1 | -5.95
3. C[C@@H](Oc1cc(-n2cnc3ccc(OC[C@@H](O)CO)cc32)sc1C(N)=O)c1ccccc1Cl | 2.03
4. CCn1c(-c2nonc2N)nc2ccc(F)cc21 | -4.18
5. COC(=O)c1cncc(/C=C/c2c(C)cc(O)cc2C)c1 | -3.53
6. CN(C)C(=O)O[C@H]1CN[C@H](C#Cc2cc3ncnc(Nc4ccc(OCc5cccc(F)c5)c(Cl)c4)c3s2)C1 | -2.89
7. Nc1nccc(-c2c(-c3ccc(F)cc3)nn3cc(C(F)(F)F)ccc23)n1 | -2.71
8. NC(=O)c1sc(-n2cnc3ccccc32)cc1OCc1ccccc1Br | -4.77
9. OCc1ccc(-c2nc(-c3ccccn3)c(-c3ccc4c(c3)OCO4)[nH]2)cc1 | -3.23
10. Cc1ccc2c(-c3ccnc(Nc4cccc(C(F)(F)F)c4)n3)c(-c3ccccc3)nn2n1 | -1.51
11. Cc1ccc(O)cc1Nc1ccnc2ccc(S(C)(=O)=O)cc12 | 9.66
12. Cc1ccc2c(-c3ccnc(Nc4ccc5c(c4)OCCO5)n3)c(-c3ccc(C(F)(F)F)cc3)nn2n1 | 0.31
13. O=C(Nc1ccc(Oc2ccc3[nH]c(NC(=O)c4ccco4)nc3c2)cc1)Nc1cc(C(F)(F)F)ccc1F | -3.76
14. C[C@@H](Oc1cc(-n2cnc3ccc(OCC4CCN(C)CC4)cc32)sc1C(N)=O)c1ccccc1C(F)(F)F | 3.05
15. Cc1cc(-c2ccccn2)cc(C)c1/C=C/c1cncc(-c2nn[nH]n2)c1 | -2.42
16. CN(C)C(=O)O[C@@H]1CN[C@@H](C#Cc2cc3ncnc(Nc4ccc(OCc5cccc(F)c5)c(Cl)c4)c3s2)C1 | 0.28
17. FC(F)(F)c1ccc(-c2nn3ncccc3c2-c2ccnc(Nc3ccc4c(c3)OCCO4)n2)cc1 | 5.73
18. COc1cc2ncn(-c3cc(OCc4ccccc4S(C)(=O)=O)c(C#N)s3)c2cc1OC | 1.09
19. CCCN1CCCC(c2ccc(Nc3nc(Nc4cc(F)ccc4C(N)=O)c4cc[nH]c4n3)c(OC)c2)C1 (centres undefined) | -3.62

---

- testedTarget: Tyrosine-protein kinase ABL2 (Homo sapiens)
- conditionNotes: at 1 µM
- Description: GSK_PKIS: ARG mean inhibition at 1 uM [Nanosyn]
# inhibition binned as lower segment = under 6%, middle segment = from 6% up to 30%, upper segment = 30% and over

1. COc1cccc(-n2ncc3c(N/N=C/c4ccc(C)cc4)ncnc32)c1 | upper segment
2. c1ccc(Nc2ncc(-c3ccccc3)o2)cc1 | middle segment
3. Nc1ccc(C#Cc2cncnc2Nc2ccc(OCc3cccc(F)c3)c(Cl)c2)cc1 | lower segment
4. CC(C)c1ccc2c(c1)NC(=O)/C2=N/Nc1ccc(S(N)(=O)=O)cc1 | middle segment
5. Oc1cccc(-c2nc(-c3ccccc3)[nH]c2-c2ccncc2)c1 | upper segment
6. c1ccc(Cc2nc3ccc(Nc4ncnc5ccccc45)cc3[nH]2)cc1 | middle segment
7. [O-][S+]1CCN(Cc2ccc(-c3ccc4ncnc(Nc5ccc(OCc6ccccc6)c(Cl)c5)c4c3)o2)CC1 | lower segment
8. Cc1ccc(Nc2ccnc(Nc3cccc(C(N)=O)c3)n2)cc1O | upper segment
9. Cc1ccc(NC(=O)CC2CC2)cc1-c1ccc(C(=O)NCC2CC2)cc1 | middle segment
10. Cc1nc(-c2ccccc2)n2nc(NCCCN3CCOCC3)ncc12 | lower segment
11. COc1cc2ncn(-c3cc(OCc4ccccc4S(C)(=O)=O)c(C#N)s3)c2cc1OC | middle segment
12. ON=C1CCc2cc(-c3nc(C4CCNCC4)[nH]c3-c3ccncc3)ccc21 | middle segment
13. Cc1ccc2c(c1)/C(=N/Nc1ccc(S(N)(=O)=O)cc1)C(=O)N2 | middle segment
14. COc1cc(Nc2nccc(-c3cnn4ncccc34)n2)cc(OC)c1 | upper segment
15. COc1cc2ncnc(Nc3ccc(C)c(O)c3)c2cc1OC | upper segment
16. CS(=O)(=O)CCNCc1nc(-c2ccc3ncnc(Nc4ccc(OCc5cccc(C(F)(F)F)c5)cc4)c3c2)cs1 | lower segment
17. Nc1nccc(-c2c(-c3ccc(F)cc3)ncn2CCCN2CCOCC2)n1 | lower segment
18. NS(=O)(=O)c1cccc(Nc2cc(-c3ccc(F)cc3)n[nH]2)c1 | middle segment
19. C[C@@H](Oc1cc(-n2cnc3ccc(OC[C@@H](O)CO)cc32)sc1C(N)=O)c1ccccc1Cl | middle segment
20. COc1cccc(-n2ncc3c(N/N=C/c4ccc(S(C)(=O)=O)cc4)ncnc32)c1 | upper segment
21. Nc1nccc(C#Cc2cncnc2Nc2ccc(OCc3cccc(F)c3)c(Cl)c2)n1 | lower segment

---

- testedTarget: Serine/threonine-protein kinase B-raf (Homo sapiens) (UniProt P15056);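 also: reported value is the mean percent inhibition of BRAF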
- Sequence (P15056 whole entry): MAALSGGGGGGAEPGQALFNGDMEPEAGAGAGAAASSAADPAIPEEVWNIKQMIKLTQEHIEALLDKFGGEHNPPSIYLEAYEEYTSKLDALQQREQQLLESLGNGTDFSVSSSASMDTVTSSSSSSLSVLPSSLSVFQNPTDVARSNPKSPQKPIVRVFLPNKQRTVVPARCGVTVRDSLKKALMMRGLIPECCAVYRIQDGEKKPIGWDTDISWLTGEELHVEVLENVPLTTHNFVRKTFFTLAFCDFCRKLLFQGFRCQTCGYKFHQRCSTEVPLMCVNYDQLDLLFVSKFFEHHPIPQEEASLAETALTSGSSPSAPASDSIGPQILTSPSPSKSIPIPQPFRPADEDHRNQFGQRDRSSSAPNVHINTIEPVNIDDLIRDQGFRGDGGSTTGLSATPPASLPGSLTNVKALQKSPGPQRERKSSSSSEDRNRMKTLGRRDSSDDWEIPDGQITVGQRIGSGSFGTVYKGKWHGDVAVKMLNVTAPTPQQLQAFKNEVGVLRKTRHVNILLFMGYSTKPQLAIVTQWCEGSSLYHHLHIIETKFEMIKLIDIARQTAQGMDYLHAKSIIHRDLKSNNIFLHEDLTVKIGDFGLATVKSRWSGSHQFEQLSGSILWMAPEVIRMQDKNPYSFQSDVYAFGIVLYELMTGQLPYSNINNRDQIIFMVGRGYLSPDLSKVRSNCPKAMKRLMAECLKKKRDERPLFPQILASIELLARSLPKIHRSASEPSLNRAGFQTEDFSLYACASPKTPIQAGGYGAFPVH
- conditionNotes: at 1 µM
Catalogue of inhibition readings, one per entry.
propertyLabel: inhibition (%)

1. Nc1nccc(-c2c(-c3ccc(F)cc3)ncn2CCCN2CCOCC2)n1 | 6.07
2. COc1cccc(-n2ncc3c(N/N=C/c4ccc(S(C)(=O)=O)cc4)ncnc32)c1 | 16.4
3. NS(=O)(=O)c1ccc(-c2cc3ccncc3cc2OCc2ccccc2)cc1 | 6.35
4. COc1cc2ncnc(Nc3ccc4c(cnn4Cc4ccccc4)c3)c2cc1OC | 3.3
5. COc1cccc(-n2nc(C)c3c(N/N=C(\C)c4ccncc4)ncnc32)c1 | -1.61
6. COc1cc2ncnc(Nc3ccc(C)c(O)c3)c2cc1OC | 10
7. c1ccc(Nc2ncc(-c3ccccc3)o2)cc1 | 7.7
8. CCn1c(-c2nonc2N)nc2ccc(F)cc21 | 7.77
9. CC(C)c1ccc(Nc2nccc(-c3cnn4ncccc34)n2)cc1 | 13.7
10. NS(=O)(=O)c1cccc(Nc2cc(-c3ccc(F)cc3)n[nH]2)c1 | 4.96
11. COc1cc2ncn(-c3cc(OCc4ccccc4S(C)(=O)=O)c(C#N)s3)c2cc1OC | 8.14
12. N#Cc1c(NC(=O)c2ccccc2F)sc2c1CCCC2 | -1.56
13. Cc1ccc2c(-c3ccnc(Nc4ccc5c(c4)OCCO5)n3)c(-c3ccc(C(F)(F)F)cc3)nn2n1 | 1.14
14. NS(=O)(=O)c1ccc(Nc2cc(-c3cccc(O)c3)n[nH]2)cc1 | 8.05
15. Cc1ccc(Nc2ccnc(Nc3cccc(C(N)=O)c3)n2)cc1O | 10.4
16. Cc1ccc(O)cc1Nc1ccnc2ccc(S(C)(=O)=O)cc12 | 32.5
17. NC(=O)c1sc(-n2cnc3ccccc32)cc1OCc1ccccc1Br | 6.15
18. Cc1ccc2c(-c3ccnc(Nc4cccc(C(F)(F)F)c4)n3)c(-c3ccccc3)nn2n1 | 14.1
19. Cc1ccc(C(=O)NC2CC2)cc1-c1ccc2[nH]ncc2c1 | -6.48
20. COc1cc(/C=N/Nc2ncnc3c2cnn3C(C)C)ccc1O | 2.26
21. CN(C)CCCn1c(-c2nonc2N)nc2cnccc21 | 6.07
22. O=C1Nc2ccccc2/C1=C/Nc1ccc2[nH]c(=O)[nH]c2c1 | 10.4
23. Cc1ccc2c(c1)/C(=N/Nc1ccc(S(N)(=O)=O)cc1)C(=O)N2 | 3.31

---

Catalogue of inhibition readings, one per entry.
- testedTarget: Non-receptor tyrosine-protein kinase TNK1 (Homo sapiens) (UniProt Q13470);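 also: reported values are mean inhibition figures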
- Sequence (Q13470 whole entry): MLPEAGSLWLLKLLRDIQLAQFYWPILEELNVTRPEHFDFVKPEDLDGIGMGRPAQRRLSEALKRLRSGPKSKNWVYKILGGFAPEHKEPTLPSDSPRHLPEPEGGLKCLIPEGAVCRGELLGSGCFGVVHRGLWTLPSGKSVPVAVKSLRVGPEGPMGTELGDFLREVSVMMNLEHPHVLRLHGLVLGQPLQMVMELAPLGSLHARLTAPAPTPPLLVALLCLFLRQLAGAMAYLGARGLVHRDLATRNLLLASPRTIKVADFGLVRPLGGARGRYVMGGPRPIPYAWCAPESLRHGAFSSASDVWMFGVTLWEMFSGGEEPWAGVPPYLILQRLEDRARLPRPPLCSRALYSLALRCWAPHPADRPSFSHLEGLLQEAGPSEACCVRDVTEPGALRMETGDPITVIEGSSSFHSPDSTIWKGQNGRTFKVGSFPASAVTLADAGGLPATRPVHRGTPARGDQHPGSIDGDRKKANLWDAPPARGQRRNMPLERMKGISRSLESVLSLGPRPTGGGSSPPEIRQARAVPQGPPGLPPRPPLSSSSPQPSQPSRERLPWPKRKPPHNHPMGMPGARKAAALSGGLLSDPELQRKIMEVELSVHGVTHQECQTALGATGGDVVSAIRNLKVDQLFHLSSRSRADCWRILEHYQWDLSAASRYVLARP
- conditionNotes: at 0.1 µM
propertyLabel: inhibition (%)

1) NS(=O)(=O)c1ccc(NC=C2C(=O)Nc3ccc4ncsc4c32)cc1 | 15.6
2) O=C(Nc1ccc(Oc2ccc3[nH]c(NC(=O)c4ccco4)nc3c2)cc1)Nc1cc(C(F)(F)F)ccc1F | 9.16
3) COc1cc(Nc2nccc(-c3cnn4ncccc34)n2)cc(OC)c1 | 26.8
4) Cc1nc(-c2ccccc2)n2nc(NCCCN3CCOCC3)ncc12 | 1.98
5) COC(=O)Nc1nc2cc(Oc3ccc(NC(=O)Nc4cccc(Br)c4)cc3)ccc2[nH]1 | 3.04
6) CS(=O)(=O)Nc1cccc(-c2ccc3c(NC(=O)C4CC4)n[nH]c3c2)c1 | 2.45
7) FC(F)(F)c1ccc(-c2nn3ncccc3c2-c2ccnc(Nc3ccc4c(c3)OCCO4)n2)cc1 | 6.18
8) Nc1nccc(-c2c(-c3ccc(F)cc3)nn3cc(C(F)(F)F)ccc23)n1 | 2.37
9) COC(=O)c1ccc2c(c1)C(=Cc1cc(Br)c(O)c(Br)c1)C(=O)N2 | 25.5
10) COc1cc2ncnc(Nc3ccc(C)c(O)c3)c2cc1OC | 5.34
11) [O-][S+]1CCN(Cc2ccc(-c3ccc4ncnc(Nc5ccc(OCc6ccccc6)c(Cl)c5)c4c3)o2)CC1 | -0.33
12) CS(=O)(=O)CCNCc1nc(-c2ccc3ncnc(Nc4ccc(OCc5cccc(C(F)(F)F)c5)cc4)c3c2)cs1 | 0.85
13) c1ccc(Nc2ncc(-c3ccccc3)o2)cc1 | 5.05
14) Cc1ccc(Nc2ccnc(Nc3cccc(C(N)=O)c3)n2)cc1O | 8.82
15) OCc1ccc(-c2nc(-c3ccccn3)c(-c3ccc4c(c3)OCO4)[nH]2)cc1 | 5.37
16) CN(C)c1cc2c(Nc3ccc4c(cnn4Cc4ccccc4)c3)ncnc2cn1 | 3.66
17) CN(c1ccc(NC(=O)Nc2ccc(OC(F)(F)F)cc2)cc1)c1ccnc(Nc2cccc(S(N)(=O)=O)c2)n1 | 21.4
18) NS(=O)(=O)c1cccc(Nc2cc(-c3ccc(F)cc3)n[nH]2)c1 | 2.68
19) CCS(=O)(=O)c1ccc(OC)c(Nc2nccc(N(C)c3ccc4c(C)n[nH]c4c3)n2)c1 | 40
20) CCCN1CCCC(c2ccc(Nc3nc(Nc4cc(F)ccc4C(N)=O)c4cc[nH]c4n3)c(OC)c2)C1 (stereo unspecified) | 41.2
21) COC(=O)c1cncc(/C=C/c2c(C)cc(O)cc2C)c1 | 4.05
